Measured values drawn from patent US20180338980A1 for this set.

assay system: UniProt Q99571
Sequence (Q99571 1-388): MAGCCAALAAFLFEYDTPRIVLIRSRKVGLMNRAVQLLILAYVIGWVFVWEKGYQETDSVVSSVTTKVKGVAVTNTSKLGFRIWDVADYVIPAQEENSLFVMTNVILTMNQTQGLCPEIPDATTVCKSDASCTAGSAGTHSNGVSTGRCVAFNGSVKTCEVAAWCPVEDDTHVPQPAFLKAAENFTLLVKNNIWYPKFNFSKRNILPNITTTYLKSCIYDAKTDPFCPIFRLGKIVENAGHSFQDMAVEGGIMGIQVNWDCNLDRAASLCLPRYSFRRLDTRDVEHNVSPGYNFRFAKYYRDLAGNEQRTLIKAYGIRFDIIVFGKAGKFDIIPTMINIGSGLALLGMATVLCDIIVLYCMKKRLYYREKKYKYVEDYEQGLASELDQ
assay overview: Assay B: human P2X4 receptor cell line, mitochondrial photina luminescence (agonist Bz-ATP at EC50)
Type: cell-based
Design: host or cells: HEK 293 (recombinant, constitutively expressing; with mitochondrial photina in Assay B)
condition notes: HEK human P2X4 cell line, photina luminescence, agonist Bz-ATP at EC50, average; read-out: human P2X4 Assay B avg Efficacy

>  <compound>
NS(=O)(=O)c1cc(NC(=O)Cc2ccccc2)ccc1OC1CCCCC1 [Example 199]

>  <assay system>
UniProt Q99571

>  <Emax / %>
70

$$$$
>  <compound>
Cc1ccccc1CC(=O)Nc1cc(F)c(Oc2cccc(Cl)c2)c(S(N)(=O)=O)c1 [Example 171]

>  <assay system>
UniProt Q99571

>  <Emax / %>
65

$$$$
>  <compound>
NS(=O)(=O)c1cc(NC(=O)Cc2cccc(F)c2Cl)ccc1OCC1CCOCC1 [Example 167]

>  <assay system>
UniProt Q99571

>  <Emax / %>
80

$$$$
>  <compound>
NS(=O)(=O)c1cc(NC(=O)Cc2ccccc2)ccc1Oc1cncc(Cl)c1 [Example 078]

>  <assay system>
UniProt Q99571

>  <Emax / %>
86

$$$$
>  <compound>
NS(=O)(=O)c1cc(NC(=O)Cc2cccc(Cl)c2)ccc1Oc1cccc(Cl)c1 [Example 186]

>  <assay system>
UniProt Q99571

>  <Emax / %>
97

$$$$
>  <compound>
NS(=O)(=O)c1cc(NC(=O)Cc2ccc(C(F)(F)F)cc2)ccc1OCc1ccccn1 [Example 152]

>  <assay system>
UniProt Q99571

>  <Emax / %>
89

$$$$
>  <compound>
NS(=O)(=O)c1cc(NC(=O)C(F)(F)c2ccccc2Cl)ccc1Oc1cccc(Cl)c1 [Example 094]

>  <assay system>
UniProt Q99571

>  <Emax / %>
74

$$$$
>  <compound>
NS(=O)(=O)c1cc(NC(=O)Cc2ccc(Cl)cc2)ccc1Oc1cccc(Cl)c1 [Example 180]

>  <assay system>
UniProt Q99571

>  <Emax / %>
63

$$$$
